Data provenance is patent US20090035322A1.

Listing: CDC, Daudi EC50 of selected binders
- targetUnderTest: T1, human CD20 (human, UniProt P11836 1-297)
- T1 sequence: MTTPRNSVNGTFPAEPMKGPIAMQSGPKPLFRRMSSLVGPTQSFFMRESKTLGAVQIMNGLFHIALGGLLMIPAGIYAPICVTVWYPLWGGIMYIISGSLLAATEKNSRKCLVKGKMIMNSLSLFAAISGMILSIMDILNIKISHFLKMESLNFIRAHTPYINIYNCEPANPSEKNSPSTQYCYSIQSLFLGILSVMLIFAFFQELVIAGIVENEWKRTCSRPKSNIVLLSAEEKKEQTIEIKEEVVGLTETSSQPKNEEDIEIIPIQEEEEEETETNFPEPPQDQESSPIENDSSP
- testDescription: cell-based or functional assay
Provide the measurement as a number trailed by its unit.

[
  {
    "binder": "6F6-1 (antibody, V domains shown, Fully human IgG, constant region not specified; also called 6F6-1N) VH: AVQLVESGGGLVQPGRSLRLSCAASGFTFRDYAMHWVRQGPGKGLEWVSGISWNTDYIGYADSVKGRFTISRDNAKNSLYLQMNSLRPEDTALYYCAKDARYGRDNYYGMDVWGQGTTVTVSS VL: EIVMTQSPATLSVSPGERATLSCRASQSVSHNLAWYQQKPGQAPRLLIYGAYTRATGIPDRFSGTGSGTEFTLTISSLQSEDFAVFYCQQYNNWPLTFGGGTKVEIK",
    "measurementName": "CDC, Daudi EC50",
    "valueReported": "0.56 nM"
  }
]

Now turn to the next binder.
The binder 3H7-6 (antibody, V domains shown, Fully human IgG, constant region not specified; also called 3H7-6N) VH: EVQLVESGGGLVQPGRSLRLSCAASGFTFYDYAMHWVRQAPGKGLEWVSGISWNSGYIGYADSVKGRFTISRDNAKNSLYLQMNSLRAEDTALYYCAKDNSYGKFYYGLDVWGQGTTVTVSS VL: EIVMTQSPATLSVSPGERTTLSCRASQSVSSNLAWYLQKPGQAPRLLIYGASTRATGIPARFSGSGSGTEFILTISSLQSEDFAVYYCQQYNNWPITFGQGTRLEIK showed CDC, Daudi EC50 equal to 0.44 nM
